# credit: the supplement of paper PMC10307832

# Lookup of reported relative viability keyed by entry
Test system: NCI-H1975
Assay: relative viability (nuclei count vs DMSO), 5 days (fraction); higher = more cells survive
Settings: first compound 8 µM
recorded metric: relative viability

{"compound": "CCCCCCCCCCCC1=C(O)C(=O)C=C(O)C1=O [Embelin] + COc1cc2c(Oc3ccc(NC(=O)C4(C(=O)Nc5ccc(F)cc5)CC4)cc3F)ccnc2cc1OCCCN1CCOCC1 [Foretinib] (partner 0.25 µM)", "target or system": "NCI-H1975", "quantitative readout": 1.07}
{"compound": "CCCCCCCCCCCC1=C(O)C(=O)C=C(O)C1=O [Embelin] + Cc1nc(Nc2ncc(C(=O)Nc3c(C)cccc3Cl)s2)cc(N2CCN(CCO)CC2)n1 [Dasatinib] (partner 0.075 µM)", "target or system": "NCI-H1975", "quantitative readout": 0.333}
{"compound": "CCCCCCCCCCCC1=C(O)C(=O)C=C(O)C1=O [Embelin] + CC1(C)CCC(c2ccc(Cl)cc2)=C(CN2CCN(c3ccc(C(=O)NS(=O)(=O)c4ccc(N[C@H](CCN5CCOCC5)CSc5ccccc5)c(S(=O)(=O)C(F)(F)F)c4)cc3)CC2)C1 [Navitoclax] (partner 0.5 µM)", "target or system": "NCI-H1975", "quantitative readout": 1.11}
{"compound": "CCCCCCCCCCCC1=C(O)C(=O)C=C(O)C1=O [Embelin] + Cc1cc(Nc2cc(N3CCN(C)CC3)nc(Sc3ccc(NC(=O)C4CC4)cc3)n2)n[nH]1 [Tozasertib] (partner 0.1 µM)", "target or system": "NCI-H1975", "quantitative readout": 0.839}
